# TARGET_DESC: human LPA1 (Homo sapiens)
# EXPERIMENT_DESCRIPTION: In vitro functional assay of lysophosphatidic acid receptor 1 activity (calcium flux)
# Type: cell-based
# CONDITION_DETAILS: B103 cells stably expressing human LPA1; Fluo-4 NW calcium flux after lysophosphatidic acid (18:1) at EC80; compounds 100 pM to 10 μM; read-out: LPA1 IC50
OBSERVABLE: IC50

Completed entries (count: 5):
Cc1ccc(NC(=O)C2(c3ccccc3C(C)C)CC(O)C2)c(OC(F)F)n1 (stereo not drawn) :: 100 to 1000 nM
COc1ccc(NC(=O)C2(c3ccccc3C(C)C)CC(O)(C(F)(F)C(=O)O)C2)c(OC(F)F)n1 (single isomer, unassigned) [Example 54-isomer B] :: 10 to 100 nM
Cc1ccc(NC(=O)C2(c3ccccc3C(C)C)CC(CO)C2)c(OC(F)F)n1 (stereo not drawn) :: 10 to 100 nM
COc1ccc(NC(=O)C2(c3ccccc3C(C)C)COC2)c(OC2CC2)n1 :: 100 to 1000 nM
COc1ccc(NC(=O)C2(c3ccccc3C(C)C)COC2)c(OC(F)F)n1 :: < 10 nM

Below are some molecules; for each one, tell me its IC50.
1. COc1cc(C)ccc1NC(=O)C1(c2ccccc2C(C)C)CNC(=O)C1 (single isomer, unassigned) [Example 102-isomer B]
2. COc1cc(C)ccc1NC(=O)C1(c2ccccc2C(C)C)CNC(=O)C1 (single isomer, unassigned) [Example 102-isomer A]

["> 1000 nM", "10 to 100 nM"]

List reported IC50 for each of these molecules:
1. Cc1ccc(NC(=O)C2(c3ccccc3C(C)C)CC(S(C)(=O)=O)C2)c(OC(F)F)n1 (stereo not drawn)
2. COc1nc(C)ccc1NC(=O)C1(c2ccccc2C(C)C)CNC(=O)C1 (stereo not drawn)
3. CC(C)c1ccccc1C1(C(=O)Nc2ccc(Cl)cn2)CC(O)(C(F)(F)C(=O)O)C1 (single isomer, unassigned) [Example 93-isomer A]
4. CC(C)c1ccccc1C1(C(=O)Nc2ccc(F)cc2OC(F)F)COC1
5. Cc1ccc(NC(=O)C2(c3ccccc3C(C)C)CC(F)C2)c(OC(F)F)n1 (stereo not drawn)

100 to 1000 nM
100 to 1000 nM
10 to 100 nM
10 to 100 nM
100 to 1000 nM

----------
# TARGET_DESC: human LPA1 (Homo sapiens, UniProt Q92633)
# Sequence (Q92633 whole entry): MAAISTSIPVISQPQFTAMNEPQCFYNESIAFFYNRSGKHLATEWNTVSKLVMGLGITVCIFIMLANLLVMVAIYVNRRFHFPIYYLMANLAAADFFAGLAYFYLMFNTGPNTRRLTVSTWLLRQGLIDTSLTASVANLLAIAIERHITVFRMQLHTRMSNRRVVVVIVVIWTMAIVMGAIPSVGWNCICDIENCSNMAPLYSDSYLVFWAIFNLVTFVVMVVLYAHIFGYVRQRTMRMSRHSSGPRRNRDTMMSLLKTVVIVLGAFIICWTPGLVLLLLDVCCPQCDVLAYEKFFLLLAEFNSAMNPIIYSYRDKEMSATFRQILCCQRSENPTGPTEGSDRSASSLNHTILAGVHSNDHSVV
# EXPERIMENT_DESCRIPTION: In vitro functional assay of lysophosphatidic acid receptor 1 activity (calcium flux)
# Type: cell-based
# CONDITION_DETAILS: B103 cells stably expressing human LPA1; Fluo-4 NW calcium flux after lysophosphatidic acid (18:1) at EC80; compounds 100 pM to 10 μM; read-out: LPA1 IC50
pIC50: −log10 of the molar value.
Give pIC50 for every item shown.

Observe how each entry below is paired with its result.
Cc1ccc(NC(=O)C2(c3ccccc3C(C)C)CC(CC(=O)O)C2)c(OC(F)F)n1 (mixture of isomers) [Example 45] :: > 8.00
Cc1ccc(NC(=O)C2(c3ccccc3C(C)C)CC(NC3CC3)C2)c(OC(F)F)n1 (single isomer, unassigned) [Example 40-isomer B] :: 6.00 to 7.00
COc1ccc(NC(=O)C2(c3ccccc3C(C)C)COC2)c(OC)n1 [Example 18] :: 6.00 to 7.00
Cc1ccc(NC(=O)C2(c3ccccc3C(C)C)CC(Cn3ccnn3)C2)c(OC(F)F)n1 (stereo not shown) [Example 72] :: 7.00 to 8.00
Cc1cc(OC(F)F)c(NC(=O)C2(c3ccccc3C(C)C)CC(O)(C(F)(F)C(=O)O)C2)cn1 (single isomer, unassigned) [Example 94-isomer B] :: 7.00 to 8.00
COc1ccc(NC(=O)C2(c3ccccc3C(C)C)CNC(=O)C2)c(OC(F)F)n1 (single isomer, unassigned) [Example 8] :: > 8.00

I'd like to know its pIC50. The molecule in question is CC(C)c1ccccc1C1(C(=O)Nc2ccc(Br)cc2OC(F)F)CNC(=O)C1 (stereo not shown) [Example 105]
7.00 to 8.00

----------
# TARGET_DESC: human LPA1 (Homo sapiens, UniProt Q92633)
# EXPERIMENT_DESCRIPTION: In vitro functional assay of lysophosphatidic acid receptor 1 activity (calcium flux)
# Type: cell-based
# CONDITION_DETAILS: B103 cells stably expressing human LPA1; Fluo-4 NW calcium flux after lysophosphatidic acid (18:1) at EC80; compounds 100 pM to 10 μM; read-out: LPA1 IC50
pIC50: −log10 of the molar value.
OBSERVABLE: pIC50

C#CC1(O)CCC(C(=O)Nc2ccc(OC)nc2OC(F)F)(c2ccccc2C(C)C)CC1 (stereo not shown) :: > 8.00
Cc1cc(OC(F)F)c(NC(=O)C2(c3ccccc3C(C)C)CC(=O)N(C)C2)cn1 (stereo not shown) :: 6.00 to 7.00
COc1ccc(NC(=O)C2(c3ccccc3C(C)C)CCC(NC(C)=O)CC2)c(OC(F)F)n1 (mixture of isomers) :: 6.00 to 7.00
Cc1ccc(NC(=O)C2(c3ccccc3C(C)C)CC(F)(F)C2)c(OC(F)F)n1 :: < 6.00
Cc1ccc(NC(=O)C2(c3ccccc3C(C)C)CC(C)(O)C2)c(OC(F)F)n1 (single isomer, unassigned) [Example 51-isomer A] :: 6.00 to 7.00
Cc1ccc(NC(=O)C2(c3ncccc3C(C)C)CC(CC(=O)O)C2)c(OC(F)F)n1 (stereo not shown) :: 7.00 to 8.00
COc1cc(Cl)ncc1NC(=O)C1(c2ccccc2C(C)C)COC1 :: 7.00 to 8.00
Cc1cc(OC(F)F)c(NC(=O)C2(c3ccccc3C(C)C)COC2)cn1 :: 7.00 to 8.00

Provide each entry's pIC50 from the list below.
1. Cc1ccc(NC(=O)C2(c3ccccc3C(C)C)CC(N3CCC3)C2)c(OC(F)F)n1 (stereo not shown)
2. Cc1ccc(NC(=O)C2(c3ccccc3C(C)C)CC(Cc3nnn[nH]3)C2)c(OC(F)F)n1 (mixture of isomers)

1: < 6.00; 2: 7.00 to 8.00

----------
# TARGET_DESC: human LPA1 (Homo sapiens)
# EXPERIMENT_DESCRIPTION: In vitro functional assay of lysophosphatidic acid receptor 1 activity (calcium flux)
# Type: cell-based
# CONDITION_DETAILS: B103 cells stably expressing human LPA1; Fluo-4 NW calcium flux after lysophosphatidic acid (18:1) at EC80; compounds 100 pM to 10 μM; read-out: LPA1 IC50
Give measured IC50 for each item. Keep answers brief.

Take a look at these entries with their results.
Cc1ccc(NC(=O)C2(c3ccccc3C(C)C)CCOCC2)c(OC(F)F)n1 :: 10 to 100 nM
Cc1ccc(NC(=O)C2(c3ccccc3C(C)C)CC(O)(c3ccc(C#N)cn3)C2)c(OC(F)F)n1 (stereo not shown) :: 10 to 100 nM
Cc1ccc(NC(=O)C2(c3ccccc3C(C)C)CC(N(C)S(C)(=O)=O)C2)c(OC(F)F)n1 (stereo not shown) :: 100 to 1000 nM
CC(C)c1ccccc1C1(C(=O)Nc2cnc(C(F)F)cc2OC(F)F)CC(=O)N(C)C1 (stereo not shown) :: 100 to 1000 nM
COc1cc(CF)ccc1NC(=O)C1(c2ccccc2C(C)C)CNC(=O)C1 (stereo not shown) :: 100 to 1000 nM

Dear reader, for each entry below, please note its IC50.
1. COc1ccc(NC(=O)C2(c3ccccc3C(C)C)CC(CC(=O)O)C2)c(OC(F)F)n1 (stereo not shown)
2. COc1cc(Cl)ncc1NC(=O)C1(c2ccccc2C(C)C)CC(O)(C(F)(F)C(=O)O)C1 (stereo not shown)

["< 10 nM", "10 to 100 nM"]

Below are 4 compounds. Give each one its IC50.
1. Cc1ccc(NC(=O)C2(c3ccccc3C(C)C)CC(CCO)C2)c(OC(F)F)n1 (mixture of isomers)
2. COc1ccc(NC(=O)C2(c3ccccc3C(C)C)CCC3(CC2)OCCO3)c(OC(F)F)n1
3. Cc1ccc(NC(=O)C2(c3ccccc3C(C)C)CC(CC#N)C2)c(OC(F)F)n1 (mixture of isomers)
4. CC(C)c1ccccc1C1(C(=O)Nc2ccc(Br)cc2OC(F)F)CC(=O)N(C)C1 (stereo not shown)

["10 to 100 nM", "100 to 1000 nM", "100 to 1000 nM", "10 to 100 nM"]

----------
# TARGET_DESC: human LPA1 (Homo sapiens, UniProt Q92633)
# EXPERIMENT_DESCRIPTION: In vitro functional assay of lysophosphatidic acid receptor 1 activity (calcium flux)
# Type: cell-based
# CONDITION_DETAILS: B103 cells stably expressing human LPA1; Fluo-4 NW calcium flux after lysophosphatidic acid (18:1) at EC80; compounds 100 pM to 10 μM; read-out: LPA1 IC50
OBSERVABLE: IC50

Study these solved cases before continuing.
COc1cc(Cl)ccc1NC(=O)C1(c2ccccc2C(C)C)COC1 :: 10 to 100 nM
Cc1ccc(NC(=O)C2(c3ccccc3C(C)C)CNC(=O)C2)c(OC(F)F)n1 (stereo not shown) :: 10 to 100 nM
CC(C)c1ccccc1C1(C(=O)Nc2ncc(Cl)cc2OC(F)F)CC(O)(C(F)(F)C(=O)O)C1 (single isomer, unassigned) [Example 55-isomer A] :: 10 to 100 nM

We next turn to a different compound, shown below.
Which IC50 value is on record for COc1ccc(NC(=O)C2(c3ccccc3C(C)C)CCC(C)(O)CC2)c(OC(F)F)n1 (single isomer, unassigned) [Example 83-isomer A] ?
> 1000 nM

Hello, the source for this data is patent US20250179045A1, in case you need it.
